Below, each entry is listed alongside its reported inhibition.
Biological target: Voltage-dependent T-type calcium channel subunit alpha-1H (Homo sapiens)
Assay: Inhibition of alpha-1H T-type calcium channel Cav3.2 expressed in Xenopus unfertilized oocytes at 100 uM by two-electrode voltage clamp method
Format: cell-based
Details: Oocyte

Guide cases for inhibition, answers given:
query: Identify measured inhibition associated with O=C(CCC(=O)Nc1nc(-c2cc3cc(Cl)ccc3oc2=O)cs1)NCCCN1CCCC1
result: 43.9%

query: Identify measured inhibition associated with O=C1CC(N2CCN(C(c3ccc(F)cc3)c3ccc(F)cc3)CC2)C(=O)N1c1ccc(Cl)cc1 (stereo not drawn)
result: 51.8%

query: Identify measured inhibition associated with O=C(NCCCN1CCOCC1)c1ccc2c(=O)n(-c3cccc(C(F)(F)F)c3)c(=S)[nH]c2c1
result: 15.9%

More entries:
query: Identify measured inhibition associated with Cc1ccc(C(=O)Oc2ccc(NC3=NS(=O)(=O)c4ccccc43)cc2CN2CCCCC2)cc1
result: 13.5%

query: Identify measured inhibition associated with CCOC(=O)c1c(C)n(Cc2ccccc2)c2ccc(OCC(O)CN3CCN(Cc4ccccc4)CC3)cc12 (stereo not drawn)
result: 8.83%

query: Identify measured inhibition associated with CCC1CCCCN1CCCNC(=O)c1ccc2c(=O)n(Cc3ccc(Cl)cc3)c(=S)[nH]c2c1 (stereo not drawn)
result: 98.3%

query: Identify measured inhibition associated with CCN(CC)CCNC(=O)c1ccc(CNc2nc(=S)[nH]c3ccccc23)cc1
result: 9.54%
